Assign TGI to each entry below.
System: DMS 273 small cell lung
Assay: NCI tumour cell line growth inhibition, 48 h

Problem: Specify reported TGI for the compound shown: `C=CCCc1cc(OC)ccc1CN(C)C(C)(C)CO`
Result: > 100 µM

Problem: Specify reported TGI for the compound shown: COc1ccc(CN(O)C2C(CO)OC(n3cc(I)c(=O)[nH]c3=O)C2O)cc1 (stereo not drawn)
Result: > 100 µM

Problem: Specify reported TGI for the compound shown: C[N+](C)(C)CC(=O)N/N=C(/C=C/c1ccccc1)CC1OC(=O)c2ccccc21 (stereo not drawn)
Result: > 100 µM

###

Test system: EKVX NSCLC
Assay: NCI tumour cell line growth inhibition, 48 h
Assign TGI to each entry below.

Problem: Specify reported TGI for the compound shown: `COc1cc(-c2cc(-c3ccc(N(C)C)cc3)nc(N3CCC(O)CC3)c2C#N)cc(OC)c1OC`
Result: > 100 µM

Problem: Specify reported TGI for the compound shown: `CCCSc1cc(Cl)c(C)cc1S(=O)(=O)n1ccnc1OCCCN(C)C`
Result: > 100 µM

Problem: Specify reported TGI for the compound shown: `CN(Cc1c2ccccc2cc2ccccc12)S(=O)(=O)c1ccc(-c2c3nc(c(-c4ccc(S(=O)(=O)N(C)Cc5c6ccccc6cc6ccccc56)cc4)c4ccc([nH]4)c(-c4ccc(S(=O)(=O)N(C)Cc5c6ccccc6cc6ccccc56)cc4)c4nc(c(-c5ccc(S(=O)(=O)N(C)Cc6c7ccccc7cc7ccccc67)cc5)c5ccc2[nH]5)C=C4)C=C3)cc1`
Result: > 100 µM

Problem: Specify reported TGI for the compound shown: CN(C(=O)C12C3C4(C(=O)O)C1(C(=O)N(C)C(C)(C)C)C1C2(C(=O)O)C3(C(=O)N(C)C(C)(C)C)C14C(=O)N(C)C(C)(C)C)C(C)(C)C (centres undefined)
Result: > 100 µM

Problem: Specify reported TGI for the compound shown: `CC(C)(C)c1cc(C(O)(C(=O)O)C(=O)O)cc(C(C)(C)C)c1O`
Result: > 100 µM

Problem: Specify reported TGI for the compound shown: `CCOC(=O)C(C(=O)c1ccccc1-c1ccccc1C(=O)O)=P(c1ccccc1)(c1ccccc1)c1ccccc1`
Result: > 100 µM

Problem: Specify reported TGI for the compound shown: `CCN1CCC(C(=O)Nc2n[nH]c3nnc(-c4cccc(F)c4F)cc23)CC1`
Result: > 25 µM

Problem: Specify reported TGI for the compound shown: `C(=N\Nc1ncc(-c2cc3cc4c(cc3o2)OCO4)s1)/c1c[nH]c2ccccc12`
Result: 6.44 µM

Problem: Specify reported TGI for the compound shown: O=S(=O)(c1ccccc1)n1c(C(O)c2ccncc2)cc2ccccc21 (centres undefined)
Result: > 100 µM

Problem: Specify reported TGI for the compound shown: `Cc1c(-c2ccccc2)c(C#N)c2nnn(-c3ccccc3)c(=O)n12`
Result: > 100 µM

Problem: Specify reported TGI for the compound shown: `CC1(C)O[C@H](C(=O)O)[C@@H](C(=O)O)O1`
Result: > 100 µM

Problem: Specify reported TGI for the compound shown: CCCCC/C=C1/CC(CO)(COC(=O)CC(C(C)C)C(C)C)OC1=O (centres undefined)
Result: 31.5 µM

Problem: Specify reported TGI for the compound shown: `CN(C)CCCn1cnc2ncccc2c1=O`
Result: > 100 µM

Problem: Specify reported TGI for the compound shown: O=P(O)(O)OC1C(OP(=O)(O)O)C(OP(=O)(O)O)C(OP(=O)(O)O)C(OP(=O)(O)O)C1OP(=O)(O)O (centres undefined)
Result: > 2000 µM
